# System: Staphylococcus aureus
# PROTOCOL_DETAILS: Antibacterial activity against methicillin-resistant Staphylococcus aureus 16-34 clinical isolate after 18 hrs by agar dilution method
# Type: functional
# MEASUREMENT_PARAMETERS: 16-34, 18 h

[
  {
    "COMPOUND": "COc1ccc2c(Cc3ccccc3)c3[n+](cc2c1OC)CCc1cc2c(cc1-3)OCO2.[Br-]",
    "MIC": "64 µg/mL"
  },
  {
    "COMPOUND": "COc1ccc2c(c[n+]3c4c2cc(Cc2cc(C(F)(F)F)cc(C(F)(F)F)c2)c2c5c(cc(c24)CC3)OCO5)c1OC.[Br-]",
    "MIC": "> 64 µg/mL"
  },
  {
    "COMPOUND": "COC(=O)c1ccc(Cc2cc3c4ccc(OC)c(OC)c4c[n+]4c3c3c(cc5c(c23)OCO5)CC4)cc1.[Br-]",
    "MIC": "> 64 µg/mL"
  },
  {
    "COMPOUND": "COc1ccc2c(c[n+]3c4c2cc(Cc2ccncc2)c2c5c(cc(c24)CC3)OCO5)c1OC.[Br-]",
    "MIC": "64 µg/mL"
  },
  {
    "COMPOUND": "COc1ccc2c(c[n+]3c4c2ccc2c5c(cc(c24)CC3)OCO5)c1OC.[Br-]",
    "MIC": "> 64 µg/mL"
  },
  {
    "COMPOUND": "COc1ccc2c(c[n+]3c4c2cc(Cc2ccccc2[N+](=O)[O-])c2c5c(cc(c24)CC3)OCO5)c1OC.[Br-]",
    "MIC": "8 µg/mL"
  },
  {
    "COMPOUND": "COc1ccc2c(c[n+]3c4c2cc(Cc2ccc(C)cc2)c2c5c(cc(c24)CC3)OCO5)c1OC.[Br-]",
    "MIC": "2 µg/mL"
  },
  {
    "COMPOUND": "COc1ccc2c(c[n+]3c4c2cc(Cc2ccc(C(C)(C)C)cc2)c2c5c(cc(c24)CC3)OCO5)c1OC.[Br-]",
    "MIC": "64 µg/mL"
  },
  {
    "COMPOUND": "COc1ccc2c(c[n+]3c4c2cc(C(C)c2ccccc2)c2c5c(cc(c24)CC3)OCO5)c1OC.[Br-] (stereo unspecified)",
    "MIC": "2 µg/mL"
  },
  {
    "COMPOUND": "COc1ccc2c(c[n+]3c4c2cc(Cc2ccc(Br)cc2)c2c5c(cc(c24)CC3)OCO5)c1OC.[Br-]",
    "MIC": "16 µg/mL"
  },
  {
    "COMPOUND": "COc1ccc2c(c[n+]3c4c2cc(Cc2c(F)cccc2F)c2c5c(cc(c24)CC3)OCO5)c1OC.[Br-]",
    "MIC": "2 µg/mL"
  },
  {
    "COMPOUND": "COc1ccc2c(c[n+]3c4c2cc(Cc2cccc(C)c2)c2c5c(cc(c24)CC3)OCO5)c1OC.[Br-]",
    "MIC": "2 µg/mL"
  },
  {
    "COMPOUND": "COC(=O)C(c1ccccc1)c1cc2c3ccc(OC)c(OC)c3c[n+]3c2c2c(cc4c(c12)OCO4)CC3.[Br-] (stereo unspecified)",
    "MIC": "> 64 µg/mL"
  },
  {
    "COMPOUND": "COc1ccc2c(c[n+]3c4c2cc(Cc2ccc(C(C)C)cc2)c2c5c(cc(c24)CC3)OCO5)c1OC.[Br-]",
    "MIC": "16 µg/mL"
  },
  {
    "COMPOUND": "COc1ccc2c(c[n+]3c4c2cc(Cc2ccc(SC(F)(F)F)cc2)c2c5c(cc(c24)CC3)OCO5)c1OC.[Br-]",
    "MIC": "> 64 µg/mL"
  },
  {
    "COMPOUND": "COc1ccc2c(c[n+]3c4c2cc(Cc2ccc(F)cc2)c2c5c(cc(c24)CC3)OCO5)c1OC.[Br-]",
    "MIC": "4 µg/mL"
  }
]
